Reported tissue uptake at 24 h values for a set of compounds
test: in vivo; conditions: female, athymic nude-Foxn1^nu/Foxn1^+, mouse, 20 pmol, total radioactivity, Biodistribution Lung
Where a SMILES comes first, the peptide text is derived from it. Bridges are numbered along the chain shown (N, C = ends). [ ]: non-standard residue; d: D form. The star is where a group is joined. dPhe(4-NHCONH2) = NC(=O)Nc1ccc(C[C@@H](N)C(=O)O)cc1; Phe(4-Cl) = N[C@@H](Cc1ccc(Cl)cc1)C(=O)O; X1 = NCCNCC(CNCCN)C(=O)*
measured_endpoint: tissue uptake at 24 h (%ID/g)

compound	measured_endpoint	quantitative_result
C[C@@H](O)[C@@H]1NC(=O)[C@H](CCCCN)NC(=O)[C@@H](Cc2ccc(NC(N)=O)cc2)NC(=O)[C@H](Cc2ccc(O)cc2)NC(=O)[C@H](NC(=O)[C@H](Cc2ccc(Cl)cc2)NC(=O)C(CNCCN)CNCCN)CSSC[C@@H](C(=O)N[C@H](Cc2ccc(O)cc2)C(N)=O)NC1=O [[^99mTc]Tc-TECANT-1, metal not drawn] (X1-[Phe(4-Cl)][dC]Y[dPhe(4-NHCONH2)]KTC[dY]-NH2; disulfide 2-7)	tissue uptake at 24 h	0.26
C[C@@H](O)[C@@H]1NC(=O)[C@H](CCCCN)NC(=O)[C@@H](Cc2c[nH]c3ccccc23)NC(=O)[C@H](Cc2ccc(O)cc2)NC(=O)[C@H](NC(=O)[C@H](Cc2ccc(Cl)cc2)NC(=O)C(CNCCN)CNCCN)CSSC[C@@H](C(=O)N[C@H](Cc2ccc(O)cc2)C(N)=O)NC1=O [[^99mTc]Tc-TECANT-2, metal not drawn]	tissue uptake at 24 h	0.3

---

assay: in vivo; details: female, athymic nude-Foxn1nu/Foxn1+, mouse, 20 pmol, total radioactivity, Biodistribution Kidneys
Where a SMILES comes first, the peptide text is derived from it. Bridges are numbered along the chain shown (N, C = ends). [ ]: non-standard residue; d: D form. The star is where a group is joined. dPhe(4-NHCONH2) = NC(=O)Nc1ccc(C[C@@H](N)C(=O)O)cc1; Phe(4-Cl) = N[C@@H](Cc1ccc(Cl)cc1)C(=O)O; X1 = NCCNCC(CNCCN)C(=O)*

compound	tissue uptake at 4 h, %ID/g
C[C@@H](O)[C@@H]1NC(=O)[C@H](CCCCN)NC(=O)[C@@H](Cc2ccc(NC(N)=O)cc2)NC(=O)[C@H](Cc2ccc(O)cc2)NC(=O)[C@H](NC(=O)[C@H](Cc2ccc(Cl)cc2)NC(=O)C(CNCCN)CNCCN)CSSC[C@@H](C(=O)N[C@H](Cc2ccc(O)cc2)C(N)=O)NC1=O [[^99mTc]Tc-TECANT-1, metal not drawn] (X1-[Phe(4-Cl)][dC]Y[dPhe(4-NHCONH2)]KTC[dY]-NH2; disulfide 2-7)	12.6
C[C@@H](O)[C@@H]1NC(=O)[C@H](CCCCN)NC(=O)[C@@H](Cc2c[nH]c3ccccc23)NC(=O)[C@H](Cc2ccc(O)cc2)NC(=O)[C@H](NC(=O)[C@H](Cc2ccc(Cl)cc2)NC(=O)C(CNCCN)CNCCN)CSSC[C@@H](C(=O)N[C@H](Cc2ccc(O)cc2)C(N)=O)NC1=O [[^99mTc]Tc-TECANT-2, metal not drawn]	25.9

---

Reported tissue uptake at 4 h values for a set of compounds
test: in vivo; conditions: female, athymic nude-Foxn1nu/Foxn1+, mouse, 20 pmol, total radioactivity, Biodistribution Adrenals
Where a SMILES comes first, the peptide text is derived from it. Bridges are numbered along the chain shown (N, C = ends). [ ]: non-standard residue; d: D form. The star is where a group is joined. dPhe(4-NHCONH2) = NC(=O)Nc1ccc(C[C@@H](N)C(=O)O)cc1; Phe(4-Cl) = N[C@@H](Cc1ccc(Cl)cc1)C(=O)O; X1 = NCCNCC(CNCCN)C(=O)*

compound	u	tissue uptake at 4 h
C[C@@H](O)[C@@H]1NC(=O)[C@H](CCCCN)NC(=O)[C@@H](Cc2c[nH]c3ccccc23)NC(=O)[C@H](Cc2ccc(O)cc2)NC(=O)[C@H](NC(=O)[C@H](Cc2ccc(Cl)cc2)NC(=O)C(CNCCN)CNCCN)CSSC[C@@H](C(=O)N[C@H](Cc2ccc(O)cc2)C(N)=O)NC1=O [[^99mTc]Tc-TECANT-2, metal not drawn]	%ID/g	1.25
C[C@@H](O)[C@@H]1NC(=O)[C@H](CCCCN)NC(=O)[C@@H](Cc2ccc(NC(N)=O)cc2)NC(=O)[C@H](Cc2ccc(O)cc2)NC(=O)[C@H](NC(=O)[C@H](Cc2ccc(Cl)cc2)NC(=O)C(CNCCN)CNCCN)CSSC[C@@H](C(=O)N[C@H](Cc2ccc(O)cc2)C(N)=O)NC1=O [[^99mTc]Tc-TECANT-1, metal not drawn] (X1-[Phe(4-Cl)][dC]Y[dPhe(4-NHCONH2)]KTC[dY]-NH2; disulfide 2-7)	%ID/g	4.36

---

Reported tissue uptake at 24 h values for a set of compounds
assay: in vivo; details: female, athymic nude-Foxn1nu/Foxn1+, mouse, 20 pmol, total radioactivity, Biodistribution Muscle
Where a SMILES comes first, the peptide text is derived from it. Bridges are numbered along the chain shown (N, C = ends). [ ]: non-standard residue; d: D form. The star is where a group is joined. dPhe(4-NHCONH2) = NC(=O)Nc1ccc(C[C@@H](N)C(=O)O)cc1; Phe(4-Cl) = N[C@@H](Cc1ccc(Cl)cc1)C(=O)O; X1 = NCCNCC(CNCCN)C(=O)*

compound	tissue uptake at 24 h
C[C@@H](O)[C@@H]1NC(=O)[C@H](CCCCN)NC(=O)[C@@H](Cc2ccc(NC(N)=O)cc2)NC(=O)[C@H](Cc2ccc(O)cc2)NC(=O)[C@H](NC(=O)[C@H](Cc2ccc(Cl)cc2)NC(=O)C(CNCCN)CNCCN)CSSC[C@@H](C(=O)N[C@H](Cc2ccc(O)cc2)C(N)=O)NC1=O [[^99mTc]Tc-TECANT-1, metal not drawn] (X1-[Phe(4-Cl)][dC]Y[dPhe(4-NHCONH2)]KTC[dY]-NH2; disulfide 2-7)	0.05 %ID/g
C[C@@H](O)[C@@H]1NC(=O)[C@H](CCCCN)NC(=O)[C@@H](Cc2c[nH]c3ccccc23)NC(=O)[C@H](Cc2ccc(O)cc2)NC(=O)[C@H](NC(=O)[C@H](Cc2ccc(Cl)cc2)NC(=O)C(CNCCN)CNCCN)CSSC[C@@H](C(=O)N[C@H](Cc2ccc(O)cc2)C(N)=O)NC1=O [[^99mTc]Tc-TECANT-2, metal not drawn]	0.06 %ID/g

---

Reported tissue uptake at 1 h values for a set of compounds
assay: in vivo; details: female, athymic nude-Foxn1nu/Foxn1+, mouse, 20 pmol, total radioactivity, Biodistribution Stomach
Where a SMILES comes first, the peptide text is derived from it. Bridges are numbered along the chain shown (N, C = ends). [ ]: non-standard residue; d: D form. The star is where a group is joined. dPhe(4-NHCONH2) = NC(=O)Nc1ccc(C[C@@H](N)C(=O)O)cc1; Phe(4-Cl) = N[C@@H](Cc1ccc(Cl)cc1)C(=O)O; X1 = NCCNCC(CNCCN)C(=O)*
measured_endpoint: tissue uptake at 1 h (%ID/g)

compound	measured_endpoint	quantitative_result
C[C@@H](O)[C@@H]1NC(=O)[C@H](CCCCN)NC(=O)[C@@H](Cc2c[nH]c3ccccc23)NC(=O)[C@H](Cc2ccc(O)cc2)NC(=O)[C@H](NC(=O)[C@H](Cc2ccc(Cl)cc2)NC(=O)C(CNCCN)CNCCN)CSSC[C@@H](C(=O)N[C@H](Cc2ccc(O)cc2)C(N)=O)NC1=O [[^99mTc]Tc-TECANT-2, metal not drawn]	tissue uptake at 1 h	14.6
C[C@@H](O)[C@@H]1NC(=O)[C@H](CCCCN)NC(=O)[C@@H](Cc2ccc(NC(N)=O)cc2)NC(=O)[C@H](Cc2ccc(O)cc2)NC(=O)[C@H](NC(=O)[C@H](Cc2ccc(Cl)cc2)NC(=O)C(CNCCN)CNCCN)CSSC[C@@H](C(=O)N[C@H](Cc2ccc(O)cc2)C(N)=O)NC1=O [[^99mTc]Tc-TECANT-1, metal not drawn] (X1-[Phe(4-Cl)][dC]Y[dPhe(4-NHCONH2)]KTC[dY]-NH2; disulfide 2-7)	tissue uptake at 1 h	36.5

---

test: in vivo; conditions: female, athymic nude-Foxn1nu/Foxn1+, mouse, 20 pmol, total radioactivity, Biodistribution Adrenals
Where a SMILES comes first, the peptide text is derived from it. Bridges are numbered along the chain shown (N, C = ends). [ ]: non-standard residue; d: D form. The star is where a group is joined. dPhe(4-NHCONH2) = NC(=O)Nc1ccc(C[C@@H](N)C(=O)O)cc1; Phe(4-Cl) = N[C@@H](Cc1ccc(Cl)cc1)C(=O)O; X1 = NCCNCC(CNCCN)C(=O)*
measured_endpoint: tissue uptake at 1 h (%ID/g)

compound	u	quantitative_result
C[C@@H](O)[C@@H]1NC(=O)[C@H](CCCCN)NC(=O)[C@@H](Cc2ccc(NC(N)=O)cc2)NC(=O)[C@H](Cc2ccc(O)cc2)NC(=O)[C@H](NC(=O)[C@H](Cc2ccc(Cl)cc2)NC(=O)C(CNCCN)CNCCN)CSSC[C@@H](C(=O)N[C@H](Cc2ccc(O)cc2)C(N)=O)NC1=O [[^99mTc]Tc-TECANT-1, metal not drawn] (X1-[Phe(4-Cl)][dC]Y[dPhe(4-NHCONH2)]KTC[dY]-NH2; disulfide 2-7)	%ID/g	7.11
C[C@@H](O)[C@@H]1NC(=O)[C@H](CCCCN)NC(=O)[C@@H](Cc2c[nH]c3ccccc23)NC(=O)[C@H](Cc2ccc(O)cc2)NC(=O)[C@H](NC(=O)[C@H](Cc2ccc(Cl)cc2)NC(=O)C(CNCCN)CNCCN)CSSC[C@@H](C(=O)N[C@H](Cc2ccc(O)cc2)C(N)=O)NC1=O [[^99mTc]Tc-TECANT-2, metal not drawn]	%ID/g	5.14
